B1: library; numbered along this chain (parent)
chain: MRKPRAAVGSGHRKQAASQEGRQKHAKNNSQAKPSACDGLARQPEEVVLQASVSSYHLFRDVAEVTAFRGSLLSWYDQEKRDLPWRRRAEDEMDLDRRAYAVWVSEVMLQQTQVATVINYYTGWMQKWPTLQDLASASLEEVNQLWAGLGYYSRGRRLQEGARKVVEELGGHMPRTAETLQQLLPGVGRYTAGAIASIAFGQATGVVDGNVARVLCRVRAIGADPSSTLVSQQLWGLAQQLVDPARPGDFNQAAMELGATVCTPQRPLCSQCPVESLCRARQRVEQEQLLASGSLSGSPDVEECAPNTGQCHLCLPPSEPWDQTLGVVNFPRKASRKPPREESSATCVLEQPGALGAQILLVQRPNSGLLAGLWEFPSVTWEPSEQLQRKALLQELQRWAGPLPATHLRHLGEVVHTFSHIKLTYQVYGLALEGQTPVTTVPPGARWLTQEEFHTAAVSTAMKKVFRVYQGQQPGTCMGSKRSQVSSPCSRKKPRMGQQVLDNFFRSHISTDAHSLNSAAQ

Variants of: B1
Assay Comment: 8OG:A repair function score (normalized; synonymous = 0, nonsense = -1) (normalized log-likelihood score); higher = more repair activity (WT-like);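 further: cells sorted at 72 h after reporter transfection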
Experimental Conditions: with 8OG:A DNA repair reporter (GFP) in HEK-293 MUTYH KO cells
# reported 8OG:A repair function score; entries follow
Readout Label: 8OG:A repair function score

{"Mutation": "R2L", "Measurement": -0.084}
{"Mutation": "E395F", "Measurement": -0.476}
{"Mutation": "P320N", "Measurement": -0.0442}
{"Mutation": "D82G", "Measurement": -0.0955}
{"Mutation": "Q394M", "Measurement": -0.148}
{"Mutation": "R156Q", "Measurement": -0.136}
{"Mutation": "K481V", "Measurement": -0.0202}
{"Mutation": "A513Q", "Measurement": 0.0184}
{"Mutation": "E451F", "Measurement": -0.282}
{"Mutation": "Y76T", "Measurement": -1.06}
{"Mutation": "Q240A", "Measurement": -0.971}
{"Mutation": "N307E", "Measurement": -0.0119}
{"Mutation": "L58T", "Measurement": -0.0284}
{"Mutation": "N251C", "Measurement": -0.884}
{"Mutation": "L361R", "Measurement": -1.12}
{"Mutation": "S486D", "Measurement": 0.00623}
{"Mutation": "L83W", "Measurement": -0.827}
{"Mutation": "Q288N", "Measurement": 0.0202}
{"Mutation": "T460S", "Measurement": -0.019}
{"Mutation": "D322N", "Measurement": -0.00231}
{"Mutation": "R213T", "Measurement": -1.01}
{"Mutation": "E64H", "Measurement": -0.0871}
{"Mutation": "V48W", "Measurement": 0.0774}
{"Mutation": "G209A", "Measurement": -0.0943}
{"Mutation": "P443S", "Measurement": 0.0247}
{"Mutation": "L295P", "Measurement": 0.0289}
{"Mutation": "P404M", "Measurement": 0.184}
{"Mutation": "Q144Y", "Measurement": -0.286}
{"Mutation": "R213E", "Measurement": -1.03}
{"Mutation": "C304Q", "Measurement": -0.421}
{"Mutation": "L369H", "Measurement": -0.345}
{"Mutation": "V62Y", "Measurement": 0.00694}
{"Mutation": "Q472N", "Measurement": 0.0284}
{"Mutation": "S71I", "Measurement": -0.125}
{"Mutation": "G297I", "Measurement": -0.0605}
{"Mutation": "N329K", "Measurement": -0.105}
{"Mutation": "T308L", "Measurement": -0.0193}
{"Mutation": "A89Y", "Measurement": -0.00929}
{"Mutation": "A220D", "Measurement": -0.821}
{"Mutation": "V62I", "Measurement": -0.00659}
{"Mutation": "L360V", "Measurement": -0.666}
{"Mutation": "S515H", "Measurement": -0.0115}
{"Mutation": "V142S", "Measurement": -0.632}
{"Mutation": "L408E", "Measurement": -1.61}
{"Mutation": "L430K", "Measurement": -0.617}
{"Mutation": "E303Q", "Measurement": 0.0405}
{"Mutation": "E433D", "Measurement": -0.241}
{"Mutation": "A220K", "Measurement": -0.891}
{"Mutation": "A89D", "Measurement": -0.0385}
{"Mutation": "S518N", "Measurement": 0.00686}
{"Mutation": "K463V", "Measurement": -0.129}
{"Mutation": "S138W", "Measurement": -0.724}
{"Mutation": "R88I", "Measurement": 0.00568}
{"Mutation": "A99H", "Measurement": -1.07}
{"Mutation": "W146G", "Measurement": -0.399}
{"Mutation": "A41G", "Measurement": -0.0656}
{"Mutation": "A513V", "Measurement": -0.0254}
{"Mutation": "D96A", "Measurement": -0.536}
{"Mutation": "L73P", "Measurement": -1.57}
{"Mutation": "L49D", "Measurement": 0.0266}
{"Mutation": "T228H", "Measurement": 0.457}
{"Mutation": "R98Q", "Measurement": -0.236}
{"Mutation": "T260K", "Measurement": -0.0184}
{"Mutation": "R336K", "Measurement": -0.0529}
{"Mutation": "R97T", "Measurement": -0.00706}
{"Mutation": "V242K", "Measurement": -0.949}
{"Mutation": "P377A", "Measurement": -0.486}
{"Mutation": "Q159W", "Measurement": 0.287}
{"Mutation": "Q351V", "Measurement": 0.000574}
{"Mutation": "R88L", "Measurement": 0.00676}
{"Mutation": "Y121R", "Measurement": -0.993}
{"Mutation": "P488R", "Measurement": 0.0168}
{"Mutation": "D249S", "Measurement": -0.402}
{"Mutation": "F504C", "Measurement": -0.00333}
{"Mutation": "S486L", "Measurement": 0.00981}
{"Mutation": "R389C", "Measurement": -0.13}
{"Mutation": "G236E", "Measurement": 0.29}
{"Mutation": "T417Y", "Measurement": 0.325}
{"Mutation": "V438L", "Measurement": -0.0153}
{"Mutation": "L289R", "Measurement": -0.0177}
{"Mutation": "F200P", "Measurement": -1.02}
{"Mutation": "T460M", "Measurement": -0.152}
{"Mutation": "L40G", "Measurement": 0.0939}
{"Mutation": "E287M", "Measurement": 0.0384}
{"Mutation": "I118M", "Measurement": -0.277}
{"Mutation": "A513L", "Measurement": -0.00457}
{"Mutation": "F250E", "Measurement": -1.03}
{"Mutation": "Q388L", "Measurement": 0.511}
{"Mutation": "S518Y", "Measurement": 0.0286}
{"Mutation": "C477R", "Measurement": 0.000623}
{"Mutation": "R446C", "Measurement": -0.342}

src = the supplement of paper PMC11908140
